Just for reference, PubChem BioAssay AID2152 is where these values come from.

// inhibition lookup, one value per entry
# Test system: Hepatitis C virus core protein (core106 dimerization)
# measurement notes: blockers of core106 self-association – biochemical, TR-FRET, triplicate, confirmation (AID 2152);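 also: 0% = DMSO wells and 100% = unlabelled core106 competitor control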
# condition notes: TR-FRET GST-/Flag-core106 dimerization, HTRF; at 5 µM; active compounds read high
Out of some 2,300 compounds screened, about 25 (1%) were called active. The sample holds actives, similar compounds and a random draw of the others, so the mix is not that of the screen.

- compound: "O=C(NCc1ccco1)C(c1ccco1)N(C(=O)Cn1nnc2ccccc21)c1ccc2c(c1)CCC2 (stereo unspecified)"
  inhibition: "6.56% (inactive)"
- compound: "O=C(Nc1ccccc1)c1ccc(Nc2c([N+](=O)[O-])cc([N+](=O)[O-])c3ccccc23)cc1"
  inhibition: "1.02% (inactive)"
- compound: "CCOC(=O)c1cccc(NC(=O)C2CCCN(c3nnc(N4CCCC4=O)s3)C2)c1 (stereo unspecified)"
  inhibition: "-7.1% (inactive)"
- compound: "CCOc1cc(/C=N\\NC(=O)c2ccc(NC(=O)C(C)(C)C)cc2)ccc1OC(=O)c1cccc(C)c1"
  inhibition: "-6.21% (inactive)"
- compound: "O=C1C2C3C=CC(C4CC34)C2C(=O)N1/N=C/c1ccc(-c2ccc(Cl)cc2[N+](=O)[O-])o1 (stereo unspecified)"
  inhibition: "-5.46% (inactive)"
- compound: "COc1ccc(CC(=O)Nc2ccc(-c3nnc(-c4ccccc4)o3)cc2)cc1"
  inhibition: "11.4% (inactive)"
- compound: "CC(=O)Nc1ccc(NC(=O)c2ccc(COc3ccccc3)cc2)cc1"
  inhibition: "-12.8% (inactive)"
- compound: "COc1ccccc1/C=c1\\sc2nc(-c3ccco3)nn2c1=O"
  inhibition: "8.15% (inactive)"
- compound: "N#C/C(=N\\Nc1ccc(S(=O)(=O)N2CCc3ccccc32)cc1)C(N)=S"
  inhibition: "-0.77% (inactive)"
- compound: "O=C(Nc1nnc(-c2ccccc2Cl)o1)c1nc2ccccc2s1"
  inhibition: "-8.09% (inactive)"
- compound: "CCN(CC(=O)Nc1c(F)cccc1F)C(=O)/C=C/c1ccc2ccccc2n1"
  inhibition: "62.5% (active)"
- compound: "N=c1c(C(=O)NCc2ccco2)cc2c(=O)n3ccccc3nc2n1Cc1ccc(Cl)cc1"
  inhibition: "9.28% (inactive)"
- compound: "CCCN(CCC)C(=O)CC(c1ccc(F)cc1)c1ccco1 (stereo unspecified)"
  inhibition: "-2.6% (inactive)"
- compound: "Cc1cccc(N2CSC3=C(C#N)C(c4ccc(C)o4)CC(=O)N3C2)c1 (stereo unspecified)"
  inhibition: "50.5% (active)"
- compound: "COC/C=C/C1=CC2=CC(=O)C(C)(OC(=O)c3cnc4ccccc4n3)C(=O)C2=CN1Cc1ccc(OC)cc1 (stereo unspecified)"
  inhibition: "2.72% (inactive)"
- compound: "CCCN(CCC)C(=O)c1cc(-c2ccc3c(c2)OCO3)nc2ccccc12"
  inhibition: "-2.46% (inactive)"
- compound: "O=C(c1cc(-c2ccccn2)nc2ccc(Br)cc12)N1CCN(S(=O)(=O)c2ccccc2)CC1"
  inhibition: "17% (inactive)"
- compound: "COc1ccc2c(c1[N+](=O)[O-])CCC/C2=N/OC(=O)c1ccccc1SC"
  inhibition: "-1.21% (inactive)"
- compound: "CCOc1ccc(C2C(C#N)=C(N)SC(N)=C2C#N)cc1OCC"
  inhibition: "31.4% (inactive)"
- compound: "O=C(/C=C/c1ccc2ccccc2n1)N1CCN(c2ccccc2)CC1"
  inhibition: "-3.48% (inactive)"
- compound: "CCOc1cc(/C=N/NC(N)=O)cc(Br)c1OCC(=O)Nc1cccc2ccccc12"
  inhibition: "2.46% (inactive)"
- compound: "COc1ccccc1CCNC(=O)c1cc(-c2ccccn2)nc2ccc(Br)cc12"
  inhibition: "-9.45% (inactive)"
- compound: "O=C(NCc1ccco1)C1Cc2ccccc2CN1S(=O)(=O)c1ccccc1F (stereo unspecified)"
  inhibition: "18.4% (inactive)"
- compound: "COc1ccc(CC(=O)Nc2ccc(-c3nnc(-c4ccccc4)o3)cc2)cc1OC"
  inhibition: "56.3% (active)"
- compound: "Cc1ccc(C)c(NC(=O)CN(C)C(=O)c2cccc(-n3cccc3)c2)c1"
  inhibition: "4.94% (inactive)"
- compound: "CS(=O)(=O)N1CCc2cc(-c3csc(NC(=O)C(c4ccccc4)c4ccccc4)n3)ccc21"
  inhibition: "-5% (inactive)"
- compound: "COc1ccc(/C=N\\NS(=O)(=O)c2ccc(Cl)cc2)cc1COc1ccccc1[N+](=O)[O-]"
  inhibition: "-7.14% (inactive)"
- compound: "COc1ccc(C(=S)N2CCOCC2)cc1OC(=O)c1cc([N+](=O)[O-])c(C)c([N+](=O)[O-])c1"
  inhibition: "3.86% (inactive)"
- compound: "O=C(Nc1ccc(NC(=S)NC(=O)C(c2ccccc2)c2ccccc2)cc1)c1ccccc1"
  inhibition: "5.69% (inactive)"
- compound: "COc1ccc(-c2cc(OC(=O)c3ccc(F)cc3)c3c(C)oc(C)c3c(=O)c2)cc1"
  inhibition: "0.02% (inactive)"
- compound: "CSc1nc(SCC(=O)NCc2ccco2)c2c3c(sc2n1)CN(C)CC3"
  inhibition: "20.1% (inactive)"
- compound: "COc1ccccc1/C=C/C=c1\\sc2nc(=O)c(Cc3ccccc3)nn2c1=O"
  inhibition: "46.4% (active)"
- compound: "Cc1ccc2nc(/C(C#N)=C\\c3ccc(Oc4ccc(C(F)(F)F)cc4[N+](=O)[O-])cc3)[nH]c2c1"
  inhibition: "-6.22% (inactive)"
- compound: "CC[C@@H](C)CN1C(=O)N[C@@H](c2ccccc2)C(C(C)=O)=C1C"
  inhibition: "5.08% (inactive)"
- compound: "N#Cc1c(-c2ccco2)cc(-c2ccccn2)nc1N"
  inhibition: "3.09% (inactive)"
- compound: "C=CCOc1ccc(-c2nc3c(c(=O)[nH]c(=O)n3Cc3ccccc3)n2CCCOC)cc1"
  inhibition: "3% (inactive)"
